test system: HCV genotype 1b replicon NS5A L31M; experiment: Transient HCV 1b replicon, NS5A mutant L31M; format: cell-based; details: Hepatitis C virus, read-out: EC50 L31M

{"columns": ["MOLECULE", "UNIT_ANNOTATION", "EC50"],
 "data": [
  ["COC(=O)N[C@H](C(=O)N1CCC[C@H]1c1ncc(-c2ccc3cc(-c4ccc5nc([C@@H]6CCCN6C(=O)[C@@H](NC(=O)OC)[C@@H](C)OC)[nH]c5c4)ccc3c2)[nH]1)C(C)C [Compound 9]", "nM", 0.072],
  ["COC(=O)N[C@H](C(=O)N1CCC[C@H]1c1ncc(-c2ccc3cc(-c4ccc5nc([C@@H]6CCCN6C(=O)[C@@H](NC(=O)OC)C(C)C)[nH]c5c4)ccc3c2)[nH]1)C(C)C [Compound 3]", "nM", 0.184],
  ["CC[C@H](C)[C@H](NC(=O)OC)C(=O)N1CCC[C@H]1c1ncc(-c2ccc3cc(-c4ccc5[nH]c([C@@H]6CCCN6C(=O)[C@@H](NC(=O)OC)[C@@H](C)OC)nc5c4)ccc3c2)[nH]1 [Compound 17]", "nM", 0.025]
]}

----------
experiment: Counterscreen Huh7-CMV-Luc; type: cell-based; conditions: human
# CC50 listing for each entry below
QUANTITY_KIND: CC50

{"columns": ["MOLECULE", "QUANTITY_KIND", "ASSAY_RESULT"],
 "data": [
  ["CC[C@H](C)[C@H](NC(=O)OC)C(=O)N1CCC[C@H]1c1ncc(-c2ccc3cc(-c4ccc5[nH]c([C@@H]6CCCN6C(=O)[C@@H](NC(=O)OC)[C@@H](C)OC)nc5c4)ccc3c2)[nH]1", "CC50", "11.1 µM"],
  ["COC(=O)N[C@H](C(=O)N1CCC[C@H]1c1ncc(-c2ccc3cc(-c4ccc5nc([C@@H]6CCCN6C(=O)[C@@H](NC(=O)OC)[C@@H](C)OC)[nH]c5c4)ccc3c2)[nH]1)C(C)C", "CC50", "> 0.984 µM"],
  ["CC[C@H](C)[C@H](NC(=O)OC)C(=O)N1CCC[C@H]1c1nc2cc(-c3ccc4cc(-c5cnc([C@@H]6CCCN6C(=O)[C@@H](NC(=O)OC)[C@@H](C)OC)[nH]5)ccc4c3)ccc2[nH]1", "CC50", "8.68 µM"],
  ["COC(=O)N[C@H](C(=O)N1CCC[C@H]1c1ncc(-c2ccc3cc(-c4ccc5nc([C@@H]6CCCN6C(=O)[C@@H](NC(=O)OC)C6CCCC6)[nH]c5c4)ccc3c2)[nH]1)C1CCCC1", "CC50", "> 0.984 µM"],
  ["COC(=O)NC(C(=O)N1CCC[C@H]1c1ncc(-c2ccc3cc(-c4ccc5nc([C@@H]6CCCN6C(=O)C(NC(=O)OC)c6ccccc6)[nH]c5c4)ccc3c2)[nH]1)c1ccccc1 (mixture of isomers)", "CC50", "> 0.984 µM"]
]}

----------
test system: HCV genotype 1b replicon NS5A Y93H; test: Transient HCV 1b replicon, NS5A mutant Y93H; assay type: cell-based; conditions: Hepatitis C virus, read-out: EC50 Y93H
pEC50: −log10 of the molar value.
# pEC50 listing for each entry below
QUANTITY_KIND: pEC50

{"columns": ["MOLECULE", "QUANTITY_KIND", "ASSAY_RESULT"],
 "data": [
  ["COC(=O)N[C@H](C(=O)N1CCC[C@H]1c1ncc(-c2ccc(-c3ccc4nc([C@@H]5CCCN5C(=O)[C@@H](NC(=O)OC)C(C)C)[nH]c4c3)cc2)[nH]1)C(C)C [Compound 1]", "pEC50", 8.88],
  ["CC[C@H](C)[C@H](NC(=O)OC)C(=O)N1CCC[C@@H]1c1ncc(-c2ccc3cc(-c4ccc5[nH]c([C@@H]6CCCN6C(=O)[C@@H](NC(=O)OC)[C@@H](C)OC)nc5c4)ccc3c2)[nH]1 [Compound 21]", "pEC50", 6.56],
  ["COC(=O)N[C@H](C(=O)N1CCC[C@H]1c1ncc(-c2ccc3cc(-c4ccc5nc([C@@H]6CCCN6C(=O)[C@@H](NC(=O)OC)[C@@H](C)O)[nH]c5c4)ccc3c2)[nH]1)[C@@H](C)O [Compound 6]", "pEC50", 8.99],
  ["CC[C@H](C)[C@H](NC(=O)OC)C(=O)N1CCC[C@H]1c1nc2cc(-c3ccc4cc(-c5cnc([C@H]6CCCN6C(=O)[C@@H](NC(=O)OC)[C@@H](C)OC)[nH]5)ccc4c3)ccc2[nH]1 [Compound 20]", "pEC50", 6.47],
  ["COC(=O)N[C@H](C(=O)N1CCC[C@H]1c1ncc(-c2ccc3cc(-c4ccc5nc([C@@H]6CCCN6C(=O)[C@@H](NC(=O)OC)C6CC6)[nH]c5c4)ccc3c2)[nH]1)C1CC1 [Compound 5]", "pEC50", 7.96],
  ["COC(=O)N[C@H](C(=O)N1CCC[C@H]1c1ncc(-c2ccc(-c3ccc4nc([C@@H]5CCCN5C(=O)[C@@H](NC(=O)OC)[C@@H](C)OC)[nH]c4c3)cc2)[nH]1)[C@@H](C)OC [Compound 2]", "pEC50", 8.54],
  ["COC(=O)N[C@@H](CC(C)C)C(=O)N1CCC[C@H]1c1ncc(-c2ccc3cc(-c4ccc5nc([C@@H]6CCCN6C(=O)[C@H](CC(C)C)NC(=O)OC)[nH]c5c4)ccc3c2)[nH]1 [Compound 7]", "pEC50", 8.47],
  ["CC[C@H](C)[C@H](NC(=O)OC)C(=O)N1CCC[C@H]1c1ncc(-c2ccc3cc(-c4ccc5[nH]c([C@@H]6CCCN6C(=O)[C@@H](NC(=O)OC)[C@@H](C)OC)nc5c4)ccc3c2)[nH]1 [Compound 17]", "pEC50", 10.47],
  ["COC(=O)N[C@H](C(=O)N1CCC[C@H]1c1ncc(-c2ccc3cc(-c4ccc5nc([C@@H]6CCCN6C(=O)[C@@H](NC(=O)OC)C6CCCC6)[nH]c5c4)ccc3c2)[nH]1)C1CCCC1 [Compound 15]", "pEC50", 8.92],
  ["CC[C@H](C)[C@H](NC(=O)OC)C(=O)N1CCC[C@H]1c1ncc(-c2ccc3cc(-c4ccc5[nH]c([C@@H]6CCCN6C(=O)[C@@H](NC(=O)OC)C(C)C)nc5c4)ccc3c2)[nH]1 [Compound 16]", "pEC50", 9.46]
]}

----------
# Liver AUC listing for each entry below
Experiment: Pharmacokinetic analysis after single oral administration, liver concentration
Format: in vivo
Conditions: male Sprague-Dawley rats, 10 mg/kg oral, solution in PEG400
Experimental: Compounds were dosed orally as a solution in PEG400 to male Sprague-Dawley rats at a dose level of 10 mg/kg. At serial time points, after dosing, the animals were sacrificed and liver samples collected. All samples were analyzed using a qualified research LC-MS/MS method to determine the concentration of the tested compounds in liver. Non-compartmental analysis using the lin/log trapezoidal rule was performed using WinNonlin™ Professional (Version 5.2.1).

{"columns": ["MOLECULE_SMILES", "Liver AUC, ng·h/g"],
 "data": [
  ["CC[C@H](C)[C@H](NC(=O)OC)C(=O)N1CCC[C@H]1c1ncc(-c2ccc3cc(-c4ccc5[nH]c([C@@H]6CCCN6C(=O)[C@@H](NC(=O)OC)[C@@H](C)OC)nc5c4)ccc3c2)[nH]1", 4213],
  ["COC(=O)N[C@H](C(=O)N1CCC[C@H]1c1ncc(-c2ccc3cc(-c4ccc5nc([C@@H]6CCCN6C(=O)[C@@H](NC(=O)OC)[C@@H](C)OC)[nH]c5c4)ccc3c2)[nH]1)[C@@H](C)OC", 1539],
  ["CC[C@H](C)[C@H](NC(=O)OC)C(=O)N1CCC[C@H]1c1nc2cc(-c3ccc4cc(-c5cnc([C@@H]6CCCN6C(=O)[C@@H](NC(=O)OC)[C@@H](C)OC)[nH]5)ccc4c3)ccc2[nH]1", 14091],
  ["CC[C@H](C)[C@H](NC(=O)OC)C(=O)N1CCC[C@H]1c1ncc(-c2ccc3cc(-c4ccc5[nH]c([C@@H]6CCCN6C(=O)[C@@H](NC(=O)OC)C(C)C)nc5c4)ccc3c2)[nH]1", 12630]
]}

----------
# CC50 listing for each entry below
experiment: Counterscreen Huh7-CMV-Luc; assay type: cell-based; details: human
QUANTITY_KIND: CC50

{"columns": ["COMPOUND", "QUANTITY_KIND", "ASSAY_RESULT"],
 "data": [
  ["COC(=O)N[C@H](C(=O)N1CCC[C@H]1c1ncc(-c2ccc(-c3ccc4nc([C@@H]5CCCN5C(=O)[C@@H](NC(=O)OC)[C@@H](C)OC)[nH]c4c3)cc2)[nH]1)[C@@H](C)OC [Compound 2]", "CC50", "> 984 nM"],
  ["COC(=O)N[C@H](C(=O)N1CCC[C@H]1c1nc2ccc(-c3ccc4cc(-c5cnc([C@@H]6CCCN6C(=O)[C@@H](NC(=O)OC)[C@@H](C)OC)[nH]5)ccc4c3)cc2[nH]1)C(C)C [Compound 11]", "CC50", "> 984 nM"],
  ["CC[C@H](C)[C@H](NC(=O)OC)C(=O)N1CCC[C@H]1c1nc2ccc(-c3ccc4cc(-c5cnc([C@@H]6CCCN6C(=O)[C@@H](NC(=O)OC)C(C)C)[nH]5)ccc4c3)cc2[nH]1 [Compound 13]", "CC50", "> 984 nM"],
  ["COC(=O)N[C@H](C(=O)N1CCC[C@H]1c1ncc(-c2ccc3cc(-c4ccc5nc([C@@H]6CCCN6C(=O)[C@@H](NC(=O)OC)[C@@H](C)OC)[nH]c5c4)ccc3c2)[nH]1)[C@@H](C)OC [Compound 4]", "CC50", "> 984 nM"],
  ["CC[C@H](C)[C@H](NC(=O)OC)C(=O)N1CCC[C@H]1c1nc2cc(-c3ccc4cc(-c5cnc([C@H]6CCCN6C(=O)[C@@H](NC(=O)OC)[C@@H](C)OC)[nH]5)ccc4c3)ccc2[nH]1 [Compound 20]", "CC50", "8160 nM"],
  ["COC(=O)N[C@H](C(=O)N1CCC[C@H]1c1ncc(-c2ccc3cc(-c4ccc5nc([C@@H]6CCCN6C(=O)[C@@H](NC(=O)OC)C6CC6)[nH]c5c4)ccc3c2)[nH]1)C1CC1 [Compound 5]", "CC50", "> 984 nM"],
  ["COC(=O)N[C@H](C(=O)N1CCC[C@H]1c1ncc(-c2ccc3cc(-c4ccc5nc([C@@H]6CCCN6C(=O)[C@@H](NC(=O)OC)[C@@H](C)O)[nH]c5c4)ccc3c2)[nH]1)[C@@H](C)O [Compound 6]", "CC50", "> 984 nM"],
  ["CC[C@H](C)[C@H](NC(=O)OC)C(=O)N1CCC[C@@H]1c1ncc(-c2ccc3cc(-c4ccc5[nH]c([C@@H]6CCCN6C(=O)[C@@H](NC(=O)OC)[C@@H](C)OC)nc5c4)ccc3c2)[nH]1 [Compound 21]", "CC50", "8160 nM"],
  ["COC(=O)NC(C(=O)N1CCC[C@H]1c1ncc(-c2ccc3cc(-c4ccc5nc([C@@H]6CCCN6C(=O)C(NC(=O)OC)C6CCOCC6)[nH]c5c4)ccc3c2)[nH]1)C1CCOCC1 (mixture of isomers) [Compound 12]", "CC50", "> 984 nM"],
  ["CC[C@@H](C)[C@H](NC(=O)OC)C(=O)N1CCC[C@H]1c1ncc(-c2ccc3cc(-c4ccc5nc([C@@H]6CCCN6C(=O)[C@@H](NC(=O)OC)[C@H](C)CC)[nH]c5c4)ccc3c2)[nH]1 [Compound 19]", "CC50", "> 984 nM"]
]}
